System: RH28
TEST DETAILS: IC50 of PD173074 for killing human RMS cell lines (RT-CES cell growth monitoring)
Type: cell-based
TEST SETTINGS: RH28 cell line, 72 hours, read-out: IC50 for killing, 72 hours
Experimental: Briefly human RMS cell lines were seeded in the 96 well plate device at 5000-20,000 cells per well. […] Cell growth was monitored and IC50 values were calculated by Cell Office® (ACEA Biosciences, San Diego, Calif.). Expression level of FGFR4 mRNA for each cell line was determined by real-time PCR (FIG. 10).
PROPERTY NAME: IC50 (µM)

> print(dat)
                                   compound  property.name  value.units  quantitative.readout
1  CCN(CC)CCCCNc1ncc2cc(-c3cc(OC)cc(OC)c3)c(NC(=O)NC(C)(C)C)nc2n1 [PD173074]           IC50           µM                   0.5

###

Tested on: RH28
TEST DETAILS: IC50 of PD173074 for killing human RMS cell lines (RT-CES cell growth monitoring)
Format: cell-based
TEST SETTINGS: RH28 cell line, 48 hours, read-out: IC50 for killing, 48 hours
PROPERTY NAME: IC50 (nM)

> print(dat)
                                   compound  property.name  quantitative.readout
1  CCN(CC)CCCCNc1ncc2cc(-c3cc(OC)cc(OC)c3)c(NC(=O)NC(C)(C)C)nc2n1 [PD173074]           IC50                   660

###

System: RH28
TEST DETAILS: IC50 of PD173074 for killing human RMS cell lines (RT-CES cell growth monitoring)
Format: cell-based
TEST SETTINGS: RH28 cell line, 24 hours, read-out: IC50 for killing, 24 hours
PROPERTY NAME: IC50

> print(dat)
                               query.smiles   result
1  CCN(CC)CCCCNc1ncc2cc(-c3cc(OC)cc(OC)c3)c(NC(=O)NC(C)(C)C)nc2n1  2.22 µM

###

Tested on: RH30
TEST DETAILS: IC50 of PD173074 for killing human RMS cell lines (RT-CES cell growth monitoring)
Assay type: cell-based
TEST SETTINGS: RH30 cell line, 24 hours, read-out: IC50 for killing, 24 hours
pIC50: −log10 of the molar value.
PROPERTY NAME: pIC50

> print(dat)
                               query.smiles  quantitative.readout
1  CCN(CC)CCCCNc1ncc2cc(-c3cc(OC)cc(OC)c3)c(NC(=O)NC(C)(C)C)nc2n1                  5.00

###

System: RH36
TEST DETAILS: IC50 of PD173074 for killing human RMS cell lines (RT-CES cell growth monitoring)
Type: cell-based
TEST SETTINGS: RH36 cell line, 72 hours, read-out: IC50 for killing, 72 hours
pIC50: −log10 of the molar value.
PROPERTY NAME: pIC50

> print(dat)
                                   compound  system.tested  property.name  quantitative.readout
1  CCN(CC)CCCCNc1ncc2cc(-c3cc(OC)cc(OC)c3)c(NC(=O)NC(C)(C)C)nc2n1 [PD173074]           RH36          pIC50                  4.69

###

Tested on: RMS772 cells expressing FGFR4 N535K (K535)
TEST DETAILS: Percent cell survival of transduced RMS772 cell lines with PD173074
Format: cell-based
TEST SETTINGS: Mus musculus; RMS772 K535, 48 hours of treatment
pIC50: −log10 of the molar value.
PROPERTY NAME: pIC50

> print(dat)
                               query.smiles  property.name  quantitative.readout
1  CCN(CC)CCCCNc1ncc2cc(-c3cc(OC)cc(OC)c3)c(NC(=O)NC(C)(C)C)nc2n1          pIC50                  5.09

###

Test system: RH30
TEST DETAILS: IC50 of PD173074 for killing human RMS cell lines (RT-CES cell growth monitoring)
Type: cell-based
TEST SETTINGS: RH30 cell line, 48 hours, read-out: IC50 for killing, 48 hours
PROPERTY NAME: IC50 (µM)

> print(dat)
                                   molecule  quantitative.readout
1  CCN(CC)CCCCNc1ncc2cc(-c3cc(OC)cc(OC)c3)c(NC(=O)NC(C)(C)C)nc2n1 [PD173074]                  8.32

Values were extracted from patent US8216783B2.
